- Target Under Test: T1, mouse VEGF164 (mouse, UniProt Q00731)
- T1 chain: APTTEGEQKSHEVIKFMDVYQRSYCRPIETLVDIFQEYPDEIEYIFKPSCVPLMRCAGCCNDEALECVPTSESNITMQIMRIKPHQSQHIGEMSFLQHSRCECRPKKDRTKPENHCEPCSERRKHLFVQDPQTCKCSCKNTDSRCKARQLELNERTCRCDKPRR
- Protocol Description: SPR, pH 5
Property Label: Kd (nM)
Return type: number; implicit unit nM.

In: What value of measured Kd is listed for 511-max (antibody, V domains shown) VH: EVQLVESGGGLVQPGGSLRLSCTVSGFSLNTYYMNWVRQAPGKGLEWVGIIAPDDTTYYASWAKSRSTISRDTSKNTVYLQMNSLRAEDTAVYYCARSGDTTAWGADIWGQGTLVTVSS VL: EIVMTQSPSTLSASVGDRVIITCQASQSINIWLSWYQQKPGKAPKLLIYRASTLASGVPSRFSGSGSGTEFTLTISSLQPDDFATYYCQANYAYSAGYGAAFGQGTKLTVLG ?
Out: 0.0613

In: Which Kd value is on record for 509-maxII (antibody, V domains shown) VH: EVQLVESGGGLVQPGGSLRLSCTASGFSLSSYYMSWVRQAPGKGLEWVGILDYVGDTDYASWAKGRFTISKDASKNTVYLQMNSLRAEDTAVYYCARTDDSRGWGLNIWGQGTLVTVSS VL: EIVMTQSPSTLSASVGDRVIITCQASQNIRIWLSWYQQKPGKAPKLLIYKASTLESGVPSRFSGSGSGTEFTLTISSLQPDDFATYYCQNNAHYSTNGGTFGQGTKLTVLG ?
Out: 1.73

In: Data request, read-out Kd, for 578-max (antibody, V domains shown) VH: EVQLVESGGGLVQPGGSLRLSCTASGFSLTDYYYMTWVRQAPGKGLEWVGFIDPDDDPYYATWAKGRFTISRDTSKNTVYLQMNSLRAEDTAVYYCAGGDHNSGWGLDIWGQGTLVTVSS VL: EIVMTQSPSTLSASVGDRVIITCQASEIIHSWLAWYQQKPGKAPKLLIYLASTLASGVPSRFSGSGSGTQFTLTISSLQPDDFATYYCQNVYLASTNGANFGQGTKLTVLG
Out: 0.429

In: // Kd lookup, key: 509-min (antibody, V domains shown) VH: EVQLVESGGGLVQPGGSLRLSCAASGFSLSSYYMCWVRQAPGKGLEWVSCLDYVGDTDYASWAKGRFTISRDNSKNTLYLQMNSLRAEDTAVYYCAKTDDSRGWGLNIWGQGTLVTVSS VL: EIVMTQSPSTLSASVGDRVIITCQASQNIRIWLSWYQQKPGKAPKLLIYKASTLESGVPSRFSGSGSGAEFTLTISSLQPDDFATYYCQNNAHYSTNGGTFGQGTKLTVLG
Out: 1.63
